Listed here: items and their measured pIC50.
molecular target: Na^+/H^+-Austauscher (Homo sapiens, UniProt P19634); construct: HT-29-Zellen werden bei 37°C, 5% CO2 in Wachstumsmedium inkubiert; endogenous in cells; experiment: Inhibition of the Na+/H+ exchanger in human colon cancer cells (HT-29), BCECF fluorescence pH measurement; conditions: HT-29-Zellen; 4 min, 37°C, pH 7.0
Sequence (P19634 whole entry): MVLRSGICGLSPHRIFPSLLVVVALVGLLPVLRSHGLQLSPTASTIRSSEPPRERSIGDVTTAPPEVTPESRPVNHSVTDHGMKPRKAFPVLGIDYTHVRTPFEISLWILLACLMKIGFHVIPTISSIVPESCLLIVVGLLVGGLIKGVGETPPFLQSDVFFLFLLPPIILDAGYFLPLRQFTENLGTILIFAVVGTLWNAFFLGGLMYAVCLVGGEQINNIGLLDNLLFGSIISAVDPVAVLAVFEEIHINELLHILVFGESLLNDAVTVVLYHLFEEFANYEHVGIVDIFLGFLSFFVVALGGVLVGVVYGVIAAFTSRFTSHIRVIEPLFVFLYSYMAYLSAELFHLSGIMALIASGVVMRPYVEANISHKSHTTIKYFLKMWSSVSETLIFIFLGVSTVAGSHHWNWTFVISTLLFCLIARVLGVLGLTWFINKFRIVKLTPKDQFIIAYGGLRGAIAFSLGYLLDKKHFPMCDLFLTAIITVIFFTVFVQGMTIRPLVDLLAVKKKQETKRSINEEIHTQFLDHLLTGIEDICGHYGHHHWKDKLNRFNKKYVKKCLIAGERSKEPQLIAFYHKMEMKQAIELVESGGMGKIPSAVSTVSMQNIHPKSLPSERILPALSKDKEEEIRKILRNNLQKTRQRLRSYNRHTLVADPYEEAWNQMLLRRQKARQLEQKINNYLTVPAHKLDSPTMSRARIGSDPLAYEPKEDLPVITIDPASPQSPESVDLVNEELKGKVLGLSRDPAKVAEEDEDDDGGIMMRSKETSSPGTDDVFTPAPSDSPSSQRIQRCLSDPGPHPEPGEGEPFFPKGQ
pIC50: −log10 of the molar value.

{"columns": ["SMILES", "EXPERIMENTAL SYSTEM", "pIC50"],
 "data": [
  ["COc1cccc(C(=O)N2CCN(c3ccc(C(=O)NC(=N)N)cc3C(F)(F)F)CC2)c1", "Na^+/H^+-Austauscher (Homo sapiens, UniProt P19634)", 7.12],
  ["N=C(N)NC(=O)c1ccc(N2CCN(C(=O)c3ccco3)CC2)c(C(F)(F)F)c1", "Na^+/H^+-Austauscher (Homo sapiens, UniProt P19634)", 7.08],
  ["COc1ccccc1C(=O)N1CCN(c2ccc(C(=O)NC(=N)N)cc2C(F)(F)F)CC1", "Na^+/H^+-Austauscher (Homo sapiens, UniProt P19634)", 7.08],
  ["N=C(N)NC(=O)c1ccc(N2CCN(C(=O)c3ccccn3)CC2)c(C(F)(F)F)c1", "Na^+/H^+-Austauscher (Homo sapiens, UniProt P19634)", 7.10]
]}
